experimental.target: d-enCas12a (Acidaminococcus sp., UniProt U2UMQ6 1-1307, E174R;S542R;K548R;D908A;E993A;D1235A)
assay.method.text: Spec-seq (native PAGE EMSA with sequencing of bound and unbound); 25 mM Tris-HCl pH 7.4, 150 mM KCl, 5 mM MgCl2, 10% glycerol, 1 mM DTT, 40 ng/uL salmon sperm DNA; 400 nM Cas12a, 480 nM crRNA, 50 nM library, 37 C 1 h; native PAGE at room temperature; high values mean tight binding;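 also: relative affinity from the bound to unbound sequence frequency ratio in Spec-seq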
run.parameters: protein: recombinant
value.kind: binding signal (lnKA)
Field format: number, assumed lnKA, no unit text.

1. GAGC (dsDNA) DNA 1: GCTATCTAGTGCTCAGTACGCACTGGAGCAGGAAACTTCTGGCAGGACCAGGTCATGAGATCGGAAGAGCACACGTCTGAACTCCAGTCA DNA 2: TGACTGGAGTTCAGACGTGTGCTCTTCCGATCTCATGACCTGGTCCTGCCAGAAGTTTCCTGCTCCAGTGCGTACTGAGCACTAGATAGC RNA: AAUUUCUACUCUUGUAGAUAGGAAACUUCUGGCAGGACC ... -5.66

Lookup: # get_value(readout='binding signal', item= TTGC (dsDNA) DNA 1: GCTATCTAGTGCTCAGTACGCACTGTTGCAGGAAACTTCTGGCAGGACCAGGTCATGAGATCGGAAGAGCACACGTCTGAACTCCAGTCA DNA 2: TGACTGGAGTTCAGACGTGTGCTCTTCCGATCTCATGACCTGGTCCTGCCAGAAGTTTCCTGCAACAGTGCGTACTGAGCACTAGATAGC RNA: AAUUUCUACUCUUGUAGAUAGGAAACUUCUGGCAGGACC )
Found: -2.75

Lookup: # get_value(readout='binding signal', item= TCAA (dsDNA) DNA 1: GCTATCTAGTGCTCAGTACGCACTGTCAAAGGAAACTTCTGGCAGGACCAGGTCATGAGATCGGAAGAGCACACGTCTGAACTCCAGTCA DNA 2: TGACTGGAGTTCAGACGTGTGCTCTTCCGATCTCATGACCTGGTCCTGCCAGAAGTTTCCTTTGACAGTGCGTACTGAGCACTAGATAGC RNA: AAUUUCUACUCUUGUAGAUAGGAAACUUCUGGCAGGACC )
Found: -5.65
